# System: P. aeruginosa WT (PAO1)
# method-description: MIC, CLSI broth microdilution, P. aeruginosa
# Assay type: cell-based
# details: Pseudomonas aeruginosa, PAO1; CLSI broth microdilution; read-out: P. aeruginosa WT (PAO1) MIC

[
  {
    "compound": "CN/C(=N\\OCC(=O)NCCCCN)[C@@H]1c2c(cnn2C)[C@@H]2CN1C(=O)N2OS(=O)(=O)O (racemic)",
    "system-name": "P. aeruginosa WT (PAO1)",
    "MIC": "< 8 µg/mL"
  },
  {
    "compound": "CN/C(=N\\OC(=O)NC(C)(C)C(=O)O)[C@@H]1c2c(cnn2C)[C@@H]2CN1C(=O)N2OS(=O)(=O)O (racemic)",
    "system-name": "P. aeruginosa WT (PAO1)",
    "MIC": "8 to 16 µg/mL"
  },
  {
    "compound": "CN/C(=N\\OC(=O)NOC)[C@@H]1c2c(cnn2C)[C@@H]2CN1C(=O)N2OS(=O)(=O)O (racemic)",
    "system-name": "P. aeruginosa WT (PAO1)",
    "MIC": "8 to 16 µg/mL"
  },
  {
    "compound": "CN/C(=N\\OCC(=O)NCCN)[C@@H]1c2c(cnn2C)[C@@H]2CN1C(=O)N2OS(=O)(=O)O (racemic)",
    "system-name": "P. aeruginosa WT (PAO1)",
    "MIC": "< 8 µg/mL"
  },
  {
    "compound": "Cn1ncc2c1[C@@H](C1=NOC(Cc3ccccc3)C1)N1C[C@@H]2N(OS(=O)(=O)O)C1=O (mixture of isomers)",
    "system-name": "P. aeruginosa WT (PAO1)",
    "MIC": "> 16 µg/mL"
  },
  {
    "compound": "Cn1ncc2c1[C@@H](C1=NOC(C(=O)O)C1)N1C[C@@H]2N(OS(=O)(=O)O)C1=O (mixture of isomers)",
    "system-name": "P. aeruginosa WT (PAO1)",
    "MIC": "> 16 µg/mL"
  },
  {
    "compound": "Cn1ncc2c1[C@@H](/C(=N/O)NCc1nc(N)cs1)N1C[C@@H]2N(OS(=O)(=O)O)C1=O",
    "system-name": "P. aeruginosa WT (PAO1)",
    "MIC": "> 16 µg/mL"
  }
]
